target or system: Thromboxane A2 receptor (Homo sapiens, UniProt P21731); further: assay procedure not described here
Sequence (P21731 whole entry): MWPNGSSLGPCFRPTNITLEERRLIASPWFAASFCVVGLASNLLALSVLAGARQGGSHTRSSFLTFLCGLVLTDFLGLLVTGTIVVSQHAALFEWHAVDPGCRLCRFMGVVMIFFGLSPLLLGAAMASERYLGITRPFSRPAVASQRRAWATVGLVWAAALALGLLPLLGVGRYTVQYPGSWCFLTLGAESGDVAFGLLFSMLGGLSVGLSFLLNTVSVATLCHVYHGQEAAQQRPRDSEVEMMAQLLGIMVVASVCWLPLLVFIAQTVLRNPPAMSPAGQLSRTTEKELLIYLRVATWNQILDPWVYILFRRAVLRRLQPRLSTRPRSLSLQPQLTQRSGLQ
Type: functional, cell-based
endpoint label: AC50

                                    compound   result
 0             NC(=O)c1cnccn1 [PYRAZINAMIDE]  > 30 µM
 1  CC(C)Cc1ccc(C(C)C(=O)NO)cc1 (stereo unspecified)  > 30 µM
 2  Sc1ncnc2nc[nH]c12 [MERCAPTOPURINE ANHYDROUS]  > 30 µM
 3  O=C1[C@H](CC[C@H](O)c2ccc(F)cc2)[C@@H](c2ccc(O)cc2)N1c1ccc(F)cc1  7.68 µM
 4                        C1N2CN3CN1CN(C2)C3  > 30 µM
 5           CN1CCC2=C(C1)c1ccccc1Cc1ccccc12  > 30 µM
 6  COc1ccc(-c2cc(=O)c3c(O)cc(O[C@@H]4O[C@H](CO[C@@H]5O[C@@H](C)[C@H](O)[C@@H](O)[C@H]5O)[C@@H](O)[C@H](O)[C@H]4O)cc3o2)cc1O  > 30 µM
 7  COc1cc2c(cc1OC)C(=O)C(CC1CCN(Cc3ccccc3)CC1)C2 (stereo unspecified)  > 30 µM
 8  C[C@@H]1C[C@H]2[C@@H]3CCC4=CC(=O)C=C[C@]4(C)[C@@]3(F)[C@@H](O)C[C@]2(C)[C@H]1C(=O)CO  > 30 µM
 9  CC(C(=O)O)c1ccc(N2CC=CC2)c(Cl)c1 (stereo unspecified)  > 30 µM
10  CCc1ccc(CCOc2ccc(CC3SC(=O)NC3=O)cc2)nc1 (stereo unspecified)  9.68 µM
11  O=C1CCC(N2C(=O)c3ccccc3C2=O)C(=O)N1 (stereo unspecified) [THALIDOMIDE]  > 30 µM
12    OC[C@@H](O)[C@@H](O)[C@H](O)[C@H](O)CO  > 30 µM
13                         Cc1cc(O)cc(C)c1Cl  28.3 µM
14           CCCCN(CCCC)CCCOC(=O)c1ccc(N)cc1  > 30 µM
15  CC(C(=O)O)c1ccc2c(c1)Cc1cccnc1O2 (stereo unspecified)  > 30 µM
16             O=[N+]([O-])c1cncn1CCN1CCOCC1  > 30 µM
17                         Oc1ncnc2[nH]ncc12  > 30 µM
18  CCOC(=O)CC(SP(=S)(OC)OC)C(=O)OCC (stereo unspecified)  > 30 µM
19  COc1cc2c(cc1OC)[C@H]1C[C@@H](OC(=O)[C@@H](N)C(C)C)[C@H](CC(C)C)CN1CC2  13.9 µM
20  CCC(Cc1c(I)cc(I)c(N)c1I)C(=O)O (stereo unspecified)  14.4 µM

* * *

We begin with a simple list: items and their reported AC50.
target or system: Kappa-type opioid receptor (Homo sapiens, UniProt P41145); further: assay procedure not described here
Sequence (P41145 whole entry): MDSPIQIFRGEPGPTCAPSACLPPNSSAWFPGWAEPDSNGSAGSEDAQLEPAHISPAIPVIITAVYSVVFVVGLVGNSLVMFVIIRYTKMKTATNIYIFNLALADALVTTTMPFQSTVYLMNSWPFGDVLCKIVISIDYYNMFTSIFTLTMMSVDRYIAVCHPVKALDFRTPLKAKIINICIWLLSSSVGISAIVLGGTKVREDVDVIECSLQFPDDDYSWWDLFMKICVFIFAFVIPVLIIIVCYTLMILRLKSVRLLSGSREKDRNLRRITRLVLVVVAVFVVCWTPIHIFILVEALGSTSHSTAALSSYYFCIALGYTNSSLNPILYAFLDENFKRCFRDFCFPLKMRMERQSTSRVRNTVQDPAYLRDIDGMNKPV
endpoint label: AC50

In [3]: df
Out[3]:
                                   molecule  endpoint_label   result
0  CC(C(=O)O)c1ccc(N2CC=CC2)c(Cl)c1 (centres undefined)            AC50  > 10 µM
1  NS(=O)(=O)c1cc2c(cc1Cl)NC(CC1CCCC1)NS2(=O)=O (centres undefined) [CYCLOPENTHIAZIDE]            AC50  > 30 µM
2                CCN(CC)CCOC(=O)c1ccc(N)cc1            AC50  > 10 µM
3  CC(C)NCC(O)COc1ccc(COCCOC(C)C)cc1 (centres undefined)            AC50  > 10 µM
4   N/N=c1/cc2c(n[nH]1)CCN(C(=O)c1ccccc1)C2            AC50  > 30 µM
5  COC(=O)C1=C(C)NC(C)=C(C(=O)OC)C1c1ccccc1[N+](=O)[O-]            AC50  > 10 µM
6  CC(=O)OCC(=O)[C@@]1(O)CC[C@H]2[C@@H]3CCC4=CC(=O)CC[C@]4(C)[C@H]3C(=O)C[C@@]21C [CORTISONE ACETATE]            AC50  > 30 µM
7  COc1ccccc1OCC(O)COC(N)=O (centres undefined)            AC50  > 10 µM
8  CCN1CCC[C@H]1CNC(=O)c1cc(S(N)(=O)=O)ccc1OC [LEVOSULPIRIDE]            AC50  > 10 µM

* * *

target or system: Amine oxidase [flavin-containing] A (Homo sapiens); further: assay procedure not described here
Sequence (P21397 whole entry): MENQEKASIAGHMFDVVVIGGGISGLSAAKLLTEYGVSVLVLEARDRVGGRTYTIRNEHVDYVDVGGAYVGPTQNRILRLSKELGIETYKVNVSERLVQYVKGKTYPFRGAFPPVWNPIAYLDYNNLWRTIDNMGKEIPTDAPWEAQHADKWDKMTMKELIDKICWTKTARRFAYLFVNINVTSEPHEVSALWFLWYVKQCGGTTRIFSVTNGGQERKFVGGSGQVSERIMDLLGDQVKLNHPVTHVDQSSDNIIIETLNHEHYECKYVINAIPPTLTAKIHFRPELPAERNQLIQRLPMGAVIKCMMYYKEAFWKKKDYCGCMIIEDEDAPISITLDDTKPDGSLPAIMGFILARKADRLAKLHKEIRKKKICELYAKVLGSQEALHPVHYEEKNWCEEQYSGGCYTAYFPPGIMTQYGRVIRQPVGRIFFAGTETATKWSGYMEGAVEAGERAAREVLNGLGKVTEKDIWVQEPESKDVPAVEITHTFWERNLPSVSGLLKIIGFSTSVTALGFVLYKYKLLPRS
Format: functional
endpoint label: AC50

>>> df
                                   compound   result
0  CN(C)c1ccc(C(=C2C=CC(=[N+](C)C)C=C2)c2ccc(N(C)C)cc2)cc1  > 30 µM
1          Nc1nc(N)c2nc(-c3ccccc3)c(N)nc2n1  > 30 µM
2  CC(=O)Oc1c(C)cc(OCC(O)CNC(C)C)c(C)c1C (centres undefined)  > 30 µM
3  O=C1c2ccccc2C(=O)C1C(=O)C(c1ccccc1)c1ccccc1  > 30 µM
4                           Oc1cccc2cccnc12  > 30 µM
5  Cc1c(O)cccc1C(=O)N[C@@H](CSc1ccccc1)[C@H](O)CN1C[C@H]2CCCC[C@H]2C[C@H]1C(=O)NC(C)(C)C  > 30 µM
6  CC(C)=CCC1C(=O)N(c2ccccc2)N(c2ccccc2)C1=O  > 30 µM
7  NC(=O)c1cccc2cn(-c3ccc([C@@H]4CCCNC4)cc3)nc12  > 30 µM
8  CCOC(=O)CC(SP(=S)(OC)OC)C(=O)OCC (centres undefined)  > 30 µM

* * *

target or system: Gamma-aminobutyric acid receptor subunit alpha-1 (Rattus norvegicus); further: assay procedure not described here
Sequence (P62813 whole entry): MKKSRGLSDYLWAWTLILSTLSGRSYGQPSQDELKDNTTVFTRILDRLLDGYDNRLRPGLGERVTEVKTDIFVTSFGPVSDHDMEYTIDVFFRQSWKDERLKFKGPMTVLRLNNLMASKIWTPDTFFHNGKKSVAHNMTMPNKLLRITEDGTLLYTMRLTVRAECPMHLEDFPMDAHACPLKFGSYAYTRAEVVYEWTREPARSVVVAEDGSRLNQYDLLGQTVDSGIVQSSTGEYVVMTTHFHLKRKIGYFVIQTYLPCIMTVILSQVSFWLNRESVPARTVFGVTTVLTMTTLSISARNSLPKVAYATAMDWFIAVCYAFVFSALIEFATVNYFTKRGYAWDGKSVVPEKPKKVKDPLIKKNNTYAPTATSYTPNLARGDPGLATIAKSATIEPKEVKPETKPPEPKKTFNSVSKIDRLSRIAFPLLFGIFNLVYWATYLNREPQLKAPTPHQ
Format: functional
endpoint label: AC50

In [3]: df
Out[3]:
                                   compound  endpoint_label   result
0  OCCN1CCN(CCCN2c3ccccc3C=Cc3ccccc32)CC1 [OPIPRAMOL]            AC50  > 30 µM
1  COC(=O)C1=C(C)NC(C)=C(C(=O)OC)C1c1ccccc1[N+](=O)[O-] [NIFEDIPINE]            AC50  > 10 µM
2   O=C(O)CCCc1ccccc1 [PHENYLBUTANOIC ACID]            AC50  > 30 µM
3  O=C(Cn1ccnc1[N+](=O)[O-])NCc1ccccc1 [BENZNIDAZOLE]            AC50  > 30 µM
4  Cc1cccc(C)c1NC(=O)C1CCCCN1C (stereo not given) [MEPIVACAINE]            AC50  > 30 µM
5  NC[C@H]1CC[C@H](C(=O)O)CC1 [TRANEXAMIC ACID]            AC50  > 10 µM
6  CN1C(=O)N(C)C2C1N(C)C(=O)N2C (stereo not given) [MEBICAR]            AC50  > 30 µM
7  C=C1CC[C@@]2(O)[C@H]3Cc4ccc(O)c5c4[C@@]2(CCN3CC2CC2)[C@H]1O5            AC50  > 30 µM
8  CCCOc1ccc(C(=O)OCCN(CC)CC)cc1N [PROPARACAINE]            AC50  > 30 µM
9  NC(=O)C[S+]([O-])C(c1ccccc1)c1ccccc1 (stereo not given) [MODAFINIL]            AC50  > 10 µM

* * *

target or system: 5-hydroxytryptamine receptor 1A (Homo sapiens, UniProt P08908); further: assay procedure not described here
Sequence (P08908 whole entry): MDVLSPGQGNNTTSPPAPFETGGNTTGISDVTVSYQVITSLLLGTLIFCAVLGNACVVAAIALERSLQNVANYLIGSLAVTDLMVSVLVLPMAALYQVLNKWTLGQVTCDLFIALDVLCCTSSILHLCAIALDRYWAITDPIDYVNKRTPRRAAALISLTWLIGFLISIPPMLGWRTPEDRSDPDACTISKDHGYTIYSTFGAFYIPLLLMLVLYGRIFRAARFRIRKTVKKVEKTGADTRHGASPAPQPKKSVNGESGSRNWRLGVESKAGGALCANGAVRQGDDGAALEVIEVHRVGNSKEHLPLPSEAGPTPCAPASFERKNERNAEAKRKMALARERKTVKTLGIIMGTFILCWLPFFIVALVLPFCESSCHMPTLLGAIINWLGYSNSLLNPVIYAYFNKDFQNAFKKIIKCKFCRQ
Format: functional, cell-based
endpoint label: AC50

molecule	endpoint label	result
CN1CC[C@]23CCCC[C@H]2[C@H]1Cc1ccc(O)cc13 [LEVORPHANOL]	AC50	> 10 µM
COC(=O)N[C@H](C(=O)N1CCC[C@H]1c1nc(-c2ccc(-c3ccc(-c4c[nH]c([C@@H]5CCCN5C(=O)[C@@H](NC(=O)OC)C(C)C)n4)cc3)cc2)c[nH]1)C(C)C	AC50	> 30 µM
Cc1c(O)c(=O)ccn1C [DEFERIPRONE]	AC50	> 30 µM
Cc1ccc(-c2nc3ccc(C)cn3c2CC(=O)N(C)C)cc1 [ZOLPIDEM]	AC50	> 30 µM
N[C@@H](C(=O)N[C@@H]1C(=O)N2C(C(=O)O)=C(Cl)CS[C@H]12)c1ccccc1 [CEFACLOR ANHYDROUS]	AC50	> 30 µM
O=C(O)CCCc1ccccc1 [PHENYLBUTANOIC ACID]	AC50	> 30 µM
CCCCCOC(=O)Nc1nc(=O)n([C@@H]2O[C@H](C)[C@@H](O)[C@H]2O)cc1F [CAPECITABINE]	AC50	> 30 µM
CCCCCN(C)CCC(O)(P(=O)(O)O)P(=O)(O)O [IBANDRONIC ACID]	AC50	> 30 µM
Cc1ccc(C(=O)c2cc(O)c(O)c([N+](=O)[O-])c2)cc1 [TOLCAPONE]	AC50	> 10 µM
